test system: MS2 coat protein; test: apparent KD of MS2 coat protein, switch OFF state (with FMN for OFF switches, without FMN for ON switches); designed switch direction (-1 OFF switch, 1 ON switch): -1; higher = weaker reporter binding; conditions: FMN input: 0 or 200 uM; Eterna round: R93 (includes R88 designs)
Answer Not fulfilled if apparent KD of MS2 coat protein is under 70 nM, and Fulfilled if it is 70 nM or more.

Sample answers from the record:
record_sequence="GGUUGGCGAGGAUAUACAUGAGGAUCACCCAUGUGAGAGAAAUAAGUGAGAAAGAAAAGUAGAAGGCGCUGACG [salish99-ex3-43]" assigned_category=Fulfilled
record_sequence="AAGAAGUGAGGAUAUCGAAGACUGUCGAAAAGACAGUCGAACGAGAAGGCACAUGAGGAUCACCCAUGUGAUAA [Mat - Exaclusion 4 - Eli mod - D70]" assigned_category=Fulfilled
record_sequence="AGUUGGCGAGGAUAUACAUGAGGAUCACCCAUGUAAAAUAAAUAAAAAAGGGAAGAAAGUAGAAGGCGCUGACA [73%, Moding Norbert Elias, 11]" assigned_category=Fulfilled
record_sequence="AAAAAGCGAGGAUAUACAUGAGGAUCACCCAUGUAAAAAAAAAGAGAUGAAACAUCAUGUAGAAGGCGCAAAAA [Excls3-I]" assigned_category="Not fulfilled"
record_sequence="AAAAAACAUGAGGAUCACCCAUGUCAGGAUAUGCCAACCUAAAAAAAAAAAAAAAAACGUAGAAGGGACAAAAA [Bilbo Confounded 2 - Jieux - Exclusion 1]" assigned_category="Not fulfilled"

In the following, a different sequence is considered.
Problem: Check the entry GAAAAACAUGAGGAUCACCCAUGUCAGGAUAUCGAAAAAAAUAAAAAAGAAAAGAAAACGAGAAGGGACAAAAA [May 12] : does apparent KD of MS2 coat protein equal or exceed 70 nM?
Result: Not fulfilled

----------
tested on: MS2 coat protein; assay: apparent KD of MS2 coat protein; designed switch direction (-1 OFF switch, 1 ON switch): -1; higher = weaker reporter binding; details: Eterna round: R95; input ligand: none
endpoint: apparent KD of MS2 coat protein (nM)
State the answer as a number, implicitly in nM.

// solved cases for apparent KD of MS2 coat protein follow
record_sequence="UUGACCCACGUCAGGAUAUCAAGAAAAGAGGCUCUUGAGAAGGGACAUGAGGAUCACCCAUGUAAGAAAUAAAU [Qumabibe] (puzzle: Brourd's mod of Exclusion 4)" system_name="MS2 coat protein" endpoint="apparent KD of MS2 coat protein" observed_value=34.6
record_sequence="AAUAAGUGAGGAUAUGGAAUAAUAAAUAAAAUAAUAAAUAACCAGAAGGCACAUGAGGAUCACCCAUGUAAUAA [JMF's solution 3] (puzzle: Exclusion 4)" system_name="MS2 coat protein" endpoint="apparent KD of MS2 coat protein" observed_value=21.4
record_sequence="AGUACUAACACGGAAGUGUUAGUACAAUAAGCUUGUGAAACAUGAGGAUCACCCAUGUCCUCAUAAGCUCGUCUUAU [salish99_TOv2_r3_026] (puzzle: Sensor v3, turn-off variant 2)" system_name="MS2 coat protein" endpoint="apparent KD of MS2 coat protein" observed_value=18.1
record_sequence="GUAGCUUCGGCUACUACAAGCUUUUUGCUCGUCUUAUUAACAUGAGGAUCACCCAUGUUAAUGAGACCUCAUGUAUU [Sensor v3 - turn-off variant 2 - 6] (puzzle: Sensor v3, turn-off variant 2)" system_name="MS2 coat protein" endpoint="apparent KD of MS2 coat protein" observed_value=10.9
record_sequence="AGAUGUAGAUACCGAUCCUACAUGAGGAUCACCCAUGUAGCUAGACGUGCUCGCGUGGCUCGUCAGACUACCAGUAG [salish99_TOv1_r3_091] (puzzle: Sensor v3, turn-off variant 1)" system_name="MS2 coat protein" endpoint="apparent KD of MS2 coat protein" observed_value=281
record_sequence="GACCCUAGGGUCAGACCCACAAGCUUUUUGCUCGUUUUAACAUGAGGAUCACCCAUGUCUAGUGGAUCUGAUCGGGC [Geores] (puzzle: Sensor v3, turn-off variant 2)" system_name="MS2 coat protein" endpoint="apparent KD of MS2 coat protein" observed_value=17.2
record_sequence="CUGGUCCGAGGAUAUAUGAUGUGAUACAUGAGGAUCACCCAUGUUAUAUUAUGGAUGUAAAUAGAAGGCGGACUAG [Mat - Exclusion 5 - JL mod - D71] (puzzle: Exclusion 5)" system_name="MS2 coat protein" endpoint="apparent KD of MS2 coat protein" observed_value=73.9
record_sequence="AUUUAGAGAGGAUAUAUUAUGUGAAACAUGAGGAUCACCCAUGUAAUAUGAUGGAUGUAAAUAGAAGGCUCAUUUA [Mat - Exclusion 5 - JL mod - D23] (puzzle: Exclusion 5)" system_name="MS2 coat protein" endpoint="apparent KD of MS2 coat protein" observed_value=56.4

Problem: Bench note: what apparent KD of MS2 coat protein did AGUACUAACACGAGAGUGUUAGUACUAUAAGCUUGUGUUACAUGAGGAUCACCCAUGUCCUCAUAGGCUCGUCUUAG [Mat - Sensor v3 - Turn-off var 2 - D83] (puzzle: Sensor v3, turn-off variant 2) show?
Result: 87.3

Problem: Bench note: what apparent KD of MS2 coat protein did AGUUGGCGAGGAUAUACAUGAGGAUCACCCAUGUGAGAGAAAAAAGUGAGGAAGAAAAGUAGAAGGCGCUGACG [salish99_ex3_r3_040] (puzzle: Exclusion 3) show?
Result: 40.1
